Test: Plasmodium falciparum growth inhibition, primary screen, strain 3D7, DAPI fluorescence, 100 nL (AID 1184);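 note: parasites grown inside human red blood cells in medium with human serum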
Settings: P. falciparum 3D7 growth, 3 d, higher = more signal
// label = y if z-score is not less than 0.2, otherwise n

Some entries whose results are on file:
compound	className
[N-]=[N+]=Nc1ccccc1[C@@H]1OC(c2ccc(OCCCO)cc2)=N[C@]1(Cc1ccccc1)C(=O)NCC(O)CO (some centres not stated)	n
COCCCNC(=O)[C@@]1(Cc2ccccc2N=[N+]=[N-])N=C(c2ccc(OCCCO)cc2)O[C@H]1c1ccccc1	n
CC(C)[Si](C#C[Si](C(C)C)(C(C)C)C(C)C)(O[C@H](C)c1cn([C@H](CO)Cc2ccccc2)nn1)C(C)C	y

-- ask Item COCCCNC(=O)[C@]1(CCS(=O)(=O)c2ccccc2)N=C(c2ccc(OCCCO)cc2)O[C@@H]1c1ccccc1N=[N+]=[N-] with z-score of 0.2 or above?
-- reply n

-- ask Item C=CCC(OC(C)=O)[C@@H]1[C@@H](N(Cc2cc3ccccc3o2)C(=O)Cc2ccc(F)cc2)c2cc(OCCCO)ccc2N1C(=O)c1ccc2ccccc2c1 (some centres not stated) with z-score of 0.2 or above?
-- reply y

-- ask Item C[N+](C)(C)CCCC[C@@H]1NC(=O)[C@H]2C[C@@H](C(=O)NCCCCCCN)[C@@H](c3ccc(O)cc3)N2C1=O with z-score of 0.2 or above?
-- reply n

---

Target: Fibroblast growth factor 10 (Homo sapiens) (UniProt O15520)
Sequence (O15520 whole entry, looked up): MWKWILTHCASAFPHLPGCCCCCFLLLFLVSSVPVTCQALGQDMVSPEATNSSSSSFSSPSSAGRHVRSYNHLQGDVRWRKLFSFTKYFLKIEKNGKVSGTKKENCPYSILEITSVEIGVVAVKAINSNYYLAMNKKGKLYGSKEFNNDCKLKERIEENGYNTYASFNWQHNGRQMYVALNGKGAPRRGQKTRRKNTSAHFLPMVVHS
Experiment: FGF10 binders on small-molecule microarrays, primary screen, biochemical, small-molecule microarray, 635 nm fluorescence (AID 1102)
Conditions: FGF10 binding, fluorescence 635 nm, higher = more signal
reportedProperty: composite z-score
No unit in the answer, only the number.

molecule	composite z-score
O=C(NCc1ccccc1)[C@@H]1c2ccccc2C(=O)N(Cc2ccccc2C(F)(F)F)[C@H]1c1ccc(CO)cc1	0.112
CCOC(=O)C1CCCCN1 (configuration not stated)	0.946
COc1ccc([Si](C)(C)[C@H]2[C@H](CCn3cc([C@H](O)c4ccccc4)nn3)O[C@@]3(C(=O)N(Cc4ccc(N5C(=O)c6cccc7cccc5c67)cc4)c4ccccc43)[C@@H]2C)cc1	0.324
COC(=O)[C@@]1(Cc2ccc(OC)cc2)[C@@H]2C(=CC(=O)[C@H]2CC(=O)C(=O)N(C)C)CN1C(=O)c1ccccc1	0.945
O=C(NCC(F)(F)F)[C@@H]1c2ccccc2C(=O)N(Cc2ccccc2C(F)(F)F)[C@H]1c1ccc(CO)cc1	-0.141

-- ask Give composite z-score for the following molecule: C=CCOC(=O)[C@H]1[C@@H]2C(=O)O[C@@H](c3ccccc3)[C@@H](c3ccccc3)N2[C@@H](c2ccc(OCCOC(=O)[C@@H]3C[C@@H]4C(=O)N[C@@H](CCCCNC(C)=O)C(=O)N4[C@@H]3c3ccc(O)cc3)cc2)[C@]12C(=O)Nc1ccc(I)cc12
-- reply 1.33

-- ask Give composite z-score for the following molecule: COC(=O)[C@@]1(Cc2ccccc2N=[N+]=[N-])N=C(c2ccc(OCCCO)cc2)O[C@H]1c1ccccc1N=[N+]=[N-]
-- reply 0.386

-- ask Give composite z-score for the following molecule: COc1ccc(C#Cc2ccc3c(c2)[C@]2(C(=O)N3)[C@H](c3ccc(O)cc3)N3[C@H](c4ccccc4)[C@H](c4ccccc4)OC(=O)[C@H]3[C@@H]2C(=O)O)cc1
-- reply 0.368

-- ask Give composite z-score for the following molecule: O=C(CS)NCCCCCCNC(=O)[C@H]1C[C@H]2C(=O)N[C@@H](Cc3ccccc3)C(=O)N2[C@H]1c1ccc(O)cc1
-- reply 1.39

-- ask Give composite z-score for the following molecule: O=C1C2C=CC(C(O)c3ccc(F)cc3)N(n3cnnc3)C2C(=O)N1Cc1ccccc1 (configuration not stated)
-- reply -0.429

-- ask Give composite z-score for the following molecule: CCCCC(=C=CC[C@@H](O)c1ccccc1OCCO)C[C@@H](O)COCc1ccccc1
-- reply 0.114

Cited source for all entries: PubChem BioAssay
